Every entry's value here was drawn from patent US20250282753A1.

Assay: Pharmacokinetics of the compounds in SD rats (Example 36)
Type: in vivo
Conditions: po; Gavage administration - 10 mg/kg; SD rat plasma
Counter-ions that a name gives are not always drawn.
reported_endpoint: MRT inf
Hey, just the number and the unit after it is fine.

Answered cases to consult:
CCOC(=O)OC(C)OC(=O)c1ccnc(-c2ccc3c(c2)c(C#N)nn3C(C)C)c1 (stereo not shown) [Compound 26]	3.57 h
COCCOC(=O)c1ccnc(-c2ccc3c(c2)c(C#N)nn3C(C)C)c1 [Compound 31, hydrobromide]	3.39 h
CC(C)n1nc(C#N)c2cc(-c3cc(C(=O)Oc4cccc(CO[N+](=O)[O-])c4)ccn3)ccc21 [Compound 42]	4.12 h

// next entry
GET /value?item= CC(C)n1nc(C#N)c2cc(-c3cc(C(=O)OCCCCO[N+](=O)[O-])ccn3)ccc21 [Compound 39] &field=MRT inf returns 3.9 h
